system: L1210; experiment: Cytotoxicity against mouse L1210 cells assessed as growth inhibition after 40 hrs; type: functional; settings: Mus musculus, L1210, 40 h; read-out: ID50 (the source's name)
Attribute Measured: IC50

Briefly, IC50 measured for COC(=O)C1=C(C(=O)OC)[C@H]2O[C@@H]1C(COC(C)=O)=C2COC(C)=O : < 1000 nM
